- Study Target: T1, human CD64 (recombinant) (human, UniProt P12314 16-288)
- T1 chain: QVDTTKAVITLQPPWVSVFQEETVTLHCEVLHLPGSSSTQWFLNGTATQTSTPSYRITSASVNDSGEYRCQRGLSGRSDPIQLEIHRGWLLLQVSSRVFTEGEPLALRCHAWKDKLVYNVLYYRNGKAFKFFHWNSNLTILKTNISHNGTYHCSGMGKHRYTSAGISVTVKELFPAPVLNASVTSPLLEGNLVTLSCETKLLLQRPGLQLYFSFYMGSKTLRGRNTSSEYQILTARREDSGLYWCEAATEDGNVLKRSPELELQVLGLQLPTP
- Protocol Notes: BLI; 100 nM CD64
Assay Endpoint: Kd (nM)
Kindly provide the numeric value in nM only, without the unit symbol.

Exercise: Request the reported Kd associated with XVNSCLLLPNLLGCGDDY (not fully specified; X1 is K, Ac-K(azido), or absent (azide clicked to DBCO-peg4-biotin); disulfide bond between C5 and C14; C-terminal amidation present or absent) [CP-33(C-term "Y" insertion mutant)-linker-biotin conjugate]
Key: 4

The reported numbers originate from patent US20240083971A1.
